system: ALOMY; assay: Post-emergence herbicidal action against ALOMY; type: in vivo, Alopecurus myosuroides; conditions: Alopecurus myosuroides, 504 h, dosage 5 g/ha, visual assessment about 3 weeks after treatment vs untreated controls
Reported pest or weed control at 5 g/ha values for the following molecules.
Kindly provide the numeric value in % only, without the unit symbol.

Below are worked cases with known answers.
structureAsSmiles	targetSystem	dataValue
CCn1nnnc1NC(=O)c1ccc(Br)c(C(=O)NC2CC2)c1Br	ALOMY	80
CCNC(=O)c1c(Br)ccc(C(=O)Nc2nnnn2C)c1Br	ALOMY	90

Attention now shifts to the item below.
Req: Any idea what pest or weed control at 5 g/ha was measured for CCn1nnnc1NC(=O)c1ccc(C(F)(F)F)c(C(=O)NC)c1Cl ?
Resp: 100

The measurements presented in this section are drawn from patent US12655116B2.
